- Organism: Cavia porcellus
- assay_remarks: In vitro inhibition of responses induced by LTD4 in Isolated terminal guinea pig ileum segments at 0.1 ug/mL
- Assay type: functional
Give inhibition at 0.1 µg/mL for every item shown.
Express it in %; write the number only.

Using known records, supply inhibition at 0.1 µg/mL for `CCCc1c(OCCCSc2ccc(C(=O)CCc3nnn[nH]3)cc2)ccc(C(C)=O)c1O`
63

Using known records, supply inhibition at 0.1 µg/mL for CCCc1c(OCCCSc2ccc(C(O)C(C)CC(=O)[O-])cc2)ccc(C(C)=O)c1O.[Na+] (stereo not given)
62

Using known records, supply inhibition at 0.1 µg/mL for CCCc1c(OCCCSc2ccc(C(O)C(C)(C)CC(=O)[O-])cc2)ccc(C(C)=O)c1O.[Na+] (stereo not given)
45

Using known records, supply inhibition at 0.1 µg/mL for `CCCc1c(OCCCSc2ccc(C(=O)CCC(=O)O)cc2F)ccc(C(C)=O)c1O`
82

Using known records, supply inhibition at 0.1 µg/mL for `CCCc1cc(C(=O)CCC(=O)O)ccc1SCCCOc1ccc(C(C)=O)c(O)c1CCC`
37

Attribution: ChEMBL document CHEMBL1123358
